Biological target: T1, human myostatin (human, UniProt O14793 267-375, biotinylated in selections and radioactive assays (site not stated))
T1 construct: Phage ELISA used both unbiotinylated and biotinylated myostatin; also called biotinylated human myostatin; myostatin-biotin
T1 sequence (looked up): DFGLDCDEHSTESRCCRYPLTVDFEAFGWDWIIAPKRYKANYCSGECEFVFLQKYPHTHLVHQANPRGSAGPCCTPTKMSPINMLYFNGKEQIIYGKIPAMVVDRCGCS
Assay: radioactive equilibrium binding assay
Would you mind telling me the reported B max of each entry?
One number for each entry, in %.

Recorded B max, per entry:
Binder: 39908-B2 (designed binder, group M3-A50; ΔS82, M83R; also called M07 (clone ID)) MTIPEIIIKVRGTQVVGSDMTVIVEFTNPFKETLRSVWVHLDGPGVTRPMKKMFREIPPKTTVQWEEVVRPWVSGHRKLIARCQLLPWHVYGELDVQIQRRDYKDDDDK
Value Type: B max
Result Unit: %
Meas Value: 75.9
--
Binder: 39888-A11 (D42N) (designed binder, group M1-A; D42N; also called M14-1 (clone ID); 39888-All(D42N)) MTIPEIIIKVRGTQVVGSDMTVIVEFTNPLKETLRNVWVHLNGPGVTRPMKKMFPAIPMNHKVQWEEVVRPWVSGHRKLIASMPQLFHIHVYGELDVQIQRRDYKDDDDK
Value Type: B max
Result Unit: %
Meas Value: 82.4
--
Binder: 39885-D11 (designed binder, group M2-A) MTIPEIIIKVRGTQVVGSDMTVIVEFTNPLKETLRNVWVHLDGPGVTRPMKKMFPAIPMNHKVQWEEVVRPWVSGHRKLIASMINHFYKHVYGELDVQIQRRDYKDDDDK
Value Type: B max
Result Unit: %
Meas Value: 22.3

Now turn to the next binder.
IN: Using the record for 39908-C11 (designed binder, group M3-A50; ΔS82, M83R; also called M22 (clone ID)) MTIPEIIIKVRGTQVVGSDMTVIVEFSNPFKETLRNVWVHLDGPGVTRPMKKMFSEIRTNATVQWEEVVRPWVSGHRKLIARCSLSPWHVYGELDVQIQRRDYKDDDDK , report its B max.
OUT: 73.7
